# TEST_TARGET: SALL4 ZFC4 G921D (HT-SELEX) (Mus musculus, UniProt Q8BX22 870-940, G921D)
# Sequence: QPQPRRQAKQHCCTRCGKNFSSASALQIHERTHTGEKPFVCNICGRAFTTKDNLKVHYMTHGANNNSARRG
# MEASUREMENT_PROTOCOL: HT-SELEX; high values mean tight binding
# CONDITIONS_USED: protein: recombinant; vector His6-GST; dsDNA, one strand shown
REPORTED_ENDPOINT: binding signal (fold-change vs cycle 0)
Please give a number only; it is taken to be in fold-change vs cycle 0.

Please state recorded binding signal (tested on SALL4 ZFC4 G921D (HT-SELEX) (Mus musculus, UniProt Q8BX22 870-940, G921D)) of CATGTC
0.939

Let us now turn to ATAATA
2.24

Let us now turn to CTCCTA
1.05

Let us now turn to GGGTAC
0.641

Others:
Please state recorded binding signal (tested on SALL4 ZFC4 G921D (HT-SELEX) (Mus musculus, UniProt Q8BX22 870-940, G921D)) of GTTGGA
0.883

Let us now turn to AAATAT
2.07
